# Protocol Text: Double-sink PAMPA permeability
# Assay type: in vitro ADME
# Condition Details: pH 7.4
Overview of reported Papp at 30 min, 50 μM across a group of compounds:
Just the number please, in ×10⁻⁶ cm/s, no unit attached.

Input COc1cccc(CNCCCNc2ccnc3cc(Cl)ccc23)c1O . Output Papp at 30 min, 50 μM: 1360

# Papp at 30 min, 50 μM of CCCN(CCCNc1ccnc2cc(Cl)ccc12)CC1CC1 = 1110

Query CCN(CC)CCCC(C)Nc1ccnc2cc(C(F)(F)F)ccc12 (stereo not shown) yields Papp at 30 min, 50 μM of 2700

The compound Clc1ccc2c(NCCCNCc3cccc4c3OCO4)ccnc2c1 showed Papp at 30 min, 50 μM equal to 2400
